- Test Target: Cannabinoid receptor 2 (Homo sapiens, UniProt P34972)
- Sequence (P34972 whole entry): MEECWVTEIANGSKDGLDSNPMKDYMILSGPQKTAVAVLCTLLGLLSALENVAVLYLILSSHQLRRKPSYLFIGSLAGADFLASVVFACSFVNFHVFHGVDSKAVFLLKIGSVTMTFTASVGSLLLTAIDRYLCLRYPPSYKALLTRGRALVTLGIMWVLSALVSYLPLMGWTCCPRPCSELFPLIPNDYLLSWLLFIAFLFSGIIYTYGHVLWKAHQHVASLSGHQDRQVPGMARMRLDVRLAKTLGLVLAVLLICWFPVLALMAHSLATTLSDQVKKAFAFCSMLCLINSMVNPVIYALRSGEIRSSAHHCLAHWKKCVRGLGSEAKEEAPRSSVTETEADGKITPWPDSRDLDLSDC
- Measurement Notes: Inverse agonist activity at human CB2 receptor expressed in HEK293 cells assessed as inhibition of forskolin-induced cAMP accumulation incubated for 60 mins
Attribute Measured: EC50 (nM)
Note: unit nM is implicit; provide only the numeric part.

Query "COC(=O)N[C@]12CC3CC(C1)C[C@](c1cc(O)c4c(c1)OC(C)(C)[C@@H]1CC[C@@H](O)C[C@@H]41)(C3)C2" yields EC50 of 15.8

According to the records, this molecule "CC1(C)Oc2cc([C@]34CC5CC(C[C@@](CC#N)(C5)C3)C4)cc(O)c2[C@@H]2C[C@H](O)CC[C@H]21" displays EC50 of 83.1

For reference, reported EC50 for "CC1(C)Oc2cc([C@]34CC5CC(C[C@@](C#N)(C5)C3)C4)cc(O)c2[C@@H]2C[C@H](O)CC[C@H]21" stands at 90.7

meta.source: ChEMBL document CHEMBL3414564
